B1: TPR t1 (parent)
chain: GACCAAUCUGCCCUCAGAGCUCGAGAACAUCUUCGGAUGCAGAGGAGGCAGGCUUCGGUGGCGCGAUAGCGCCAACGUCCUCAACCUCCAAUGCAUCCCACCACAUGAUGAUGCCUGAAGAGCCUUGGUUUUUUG

variants of: B1; test: polymerase ribozyme fitness, log enrichment relative to wild type (log ratio); higher = more active; in vitro selection for triplet polymerase activity
Please enter T where polymerase ribozyme fitness (log ratio) is greater than or equal to -2, and F where it is lower.

1. C13U G44U G58A U59A G61A C62U = F
2. G69C C98U = T
3. U7C A83G A84C = T
4. A29G C49G C85G = F
5. A6C C8U C11U G69U C104G = F
6. U21C G110U G113U = F
7. G45C A119G U131G U132A = T
8. C8A C97A G120C = F
9. G61A C97A C124U = F
10. C8A U9G C85G C89A U126G G127C = F
11. U78C U132C = T
12. A5U G39C A105U = F
13. G10A A43C C123A U125C = T
14. C8U U78C U92G C115A A119U = T
15. C82A U116C = T
16. C56G G69C = F
17. C13G C53G C72U = T
18. U54C G93C G117A = F
19. A2U C12A = F
20. G44A G60A U106G U112A = T
21. G61A C79A C114A = F
22. A29U G48C G113C U129A = F
